target: acetylcholine receptor; test: SPR, AchR immobilised on CM5 chip, peptide at 10 uM
Kindly supply the reported Binding affinity (RU) values for the records listed here.
Give bare numbers, in RU.

Below: 3 binders and their reported Binding affinity (RU).
REANR [5mer-863] ... 16
KKHFK [5mer-890] ... 33
KDSMK [5mer-852] ... 22

# get_value(readout='Binding affinity (RU)', item= RRQRLK [6mer-1-464] )
131
